system: 60 cancer cell lines (NCI 60 cancer cell line series); assay: NCI-DTP in vitro cancer screen, sulforhodamine B (SRB) growth inhibition, 48 hour exposure; format: cell-based, human; conditions: Leukemia HL-60(I) CL7008
Where a name gives a salt, the structure may show the parent alone.
result type: classification of cell line as Low(1), Medium(2), High(3) sensitivity to compound

[[record]]
compound = "Sc1ncnc2nc[nH]c12 [6-mercaptopurine]"
reported_result = 2

[[record]]
compound = "CC[C@]1(O)C[C@H]2CN(CCc3c([nH]c4ccccc34)[C@@](C(=O)OC)(c3cc4c(cc3OC)N(C=O)[C@H]3[C@@](O)(C(=O)OC)[C@H](OC(C)=O)[C@]5(CC)C=CCN6CC[C@]43[C@@H]65)C2)C1 [Vincristine sulfate]"
reported_result = 3

[[record]]
compound = "O=C(O)CCCc1ccc(N(CCCl)CCCl)cc1 [Chlorambucil]"
reported_result = 3

[[record]]
compound = "CC[C@]1(O)C[C@@H]2CN(CCc3c([nH]c4ccccc34)[C@@](C(=O)OC)(c3cc4c(cc3OC)N(C)[C@H]3[C@@](O)(C(=O)OC)[C@H](OC(C)=O)[C@]5(CC)C=CCN6CC[C@]43[C@@H]65)C2)C1 [Vinblastine sulfate]"
reported_result = 3

[[record]]
compound = "N[C@@H](Cc1ccc(N(CCCl)CCCl)cc1)C(=O)O [Melphalan]"
reported_result = 3

[[record]]
compound = "O=C1c2c(O)ccc(O)c2C(=O)c2c(NCCNCCO)ccc(NCCNCCO)c21 [Mitoxantrone]"
reported_result = 3

[[record]]
compound = "COc1cc([C@@H]2c3cc4c(cc3[C@@H](O[C@@H]3O[C@@H]5CO[C@@H](c6cccs6)O[C@H]5[C@H](O)[C@H]3O)[C@H]3COC(=O)[C@H]23)OCO4)cc(OC)c1O [Teniposide]"
reported_result = 3

[[record]]
compound = "CN(Cc1cnc2nc(N)nc(N)c2n1)c1ccc(C(=O)N[C@@H](CCC(=O)O)C(=O)O)cc1 [Methotrexate]"
reported_result = 2


---

System: 60 cancer cell lines (NCI 60 cancer cell line series)
Experiment: NCI-DTP in vitro cancer screen, sulforhodamine B (SRB) growth inhibition, 48 hour exposure
Assay type: cell-based, human
Settings: Renal UO-31 CL9004
From the text: Cancer Cell Line Preparation. Sixty cancer cell lines were obtained from the National Cancer Institute Developmental Therapeutics Program (NCI-DTP). […] No-drug, no-cell and no-growth controls are included. […] From dose response curves based on the SRB data, various parameters can be determined. […] More precisely, the quantity used in the calculation to be described is the potency measure −log{GI50}. […]
# maps each entry to its sensitivity classification Low(1)/Medium(2)/High(3)
result type: sensitivity classification Low(1)/Medium(2)/High(3)

[[record]]
compound = "CN(Cc1cnc2nc(N)nc(N)c2n1)c1ccc(C(=O)N[C@@H](CCC(=O)O)C(=O)O)cc1 [Methotrexate]"
reported_result = 2

[[record]]
compound = "NC(=O)NO [Hydroxyurea]"
reported_result = 2

[[record]]
compound = "CC(=O)O[C@H]1C(=O)[C@@]2(C)[C@H]([C@H](OC(=O)c3ccccc3)[C@]3(O)C[C@H](OC(=O)[C@H](O)[C@@H](NC(=O)c4ccccc4)c4ccccc4)C(C)=C1C3(C)C)[C@]1(OC(C)=O)CO[C@@H]1C[C@@H]2O [TAXOL, paclitaxel, reference compound]"
reported_result = 1


---

system: 60 cancer cell lines (NCI 60 cancer cell line series); test: NCI-DTP in vitro cancer screen, sulforhodamine B (SRB) growth inhibition, 48 hour exposure; format: cell-based, human; details: Colon HCT-15 CL4015
Structures can show the parent of a compound that is named as a salt.
result type: classification of cell line as Low(1), Medium(2), High(3) sensitivity to compound

[[record]]
compound = "COc1cccc2c1C(=O)c1c(O)c3c(c(O)c1C2=O)C[C@@](O)(C(=O)CO)C[C@@H]3O[C@H]1C[C@H](N)[C@H](O)[C@H](C)O1"
reported_result = 1

[[record]]
compound = "CC[C@]1(O)C[C@@H]2CN(CCc3c([nH]c4ccccc34)[C@@](C(=O)OC)(c3cc4c(cc3OC)N(C)[C@H]3[C@@](O)(C(=O)OC)[C@H](OC(C)=O)[C@]5(CC)C=CCN6CC[C@]43[C@@H]65)C2)C1 [Vinblastine sulfate]"
reported_result = 1

[[record]]
compound = "Sc1ncnc2nc[nH]c12"
reported_result = 2

[[record]]
compound = "CN(Cc1cnc2nc(N)nc(N)c2n1)c1ccc(C(=O)N[C@@H](CCC(=O)O)C(=O)O)cc1 [Methotrexate]"
reported_result = 3

[[record]]
compound = "O=C1c2c(O)ccc(O)c2C(=O)c2c(NCCNCCO)ccc(NCCNCCO)c21"
reported_result = 1

[[record]]
compound = "O=C(O)CCCc1ccc(N(CCCl)CCCl)cc1"
reported_result = 2

[[record]]
compound = "CC(=O)O[C@H]1C(=O)[C@@]2(C)[C@H]([C@H](OC(=O)c3ccccc3)[C@]3(O)C[C@H](OC(=O)[C@H](O)[C@@H](NC(=O)c4ccccc4)c4ccccc4)C(C)=C1C3(C)C)[C@]1(OC(C)=O)CO[C@@H]1C[C@@H]2O [TAXOL, paclitaxel, reference compound]"
reported_result = 1

[[record]]
compound = "COc1cc([C@@H]2c3cc4c(cc3[C@@H](O[C@@H]3O[C@@H]5CO[C@@H](C)O[C@H]5[C@H](O)[C@H]3O)[C@H]3COC(=O)[C@H]23)OCO4)cc(OC)c1O [Etoposide]"
reported_result = 2

[[record]]
compound = "N.N.[Cl][Pt][Cl] [cisplatin, cis-Diamminedichloroplatinum (II), reference compound]"
reported_result = 1

[[record]]
compound = "COc1cccc2c1C(=O)c1c(O)c3c(c(O)c1C2=O)C[C@@](O)(C(=O)CO)C[C@@H]3OC1CC(N)CC(C)O1.Cl (stereo partly shown)"
reported_result = 1


---

Reported classification of cell line as Low(1), Medium(2), High(3) sensitivity to compound values are given for each entry in this list.
system: 60 cancer cell lines (NCI 60 cancer cell line series); test: NCI-DTP in vitro cancer screen, sulforhodamine B (SRB) growth inhibition, 48 hour exposure; type: cell-based, human; conditions: Colon KM12 CL4017
Structures can show the parent of a compound that is named as a salt.
result type: classification of cell line as Low(1), Medium(2), High(3) sensitivity to compound

[[record]]
molecule = "O=c1[nH]cc(F)c(=O)[nH]1"
reported_result = 2

[[record]]
molecule = "COc1cccc2c1C(=O)c1c(O)c3c(c(O)c1C2=O)C[C@@](O)(C(=O)CO)C[C@@H]3O[C@H]1C[C@H](N)[C@H](O)[C@H](C)O1"
reported_result = 2

[[record]]
molecule = "CC[C@]1(O)C[C@H]2CN(CCc3c([nH]c4ccccc34)[C@@](C(=O)OC)(c3cc4c(cc3OC)N(C=O)[C@H]3[C@@](O)(C(=O)OC)[C@H](OC(C)=O)[C@]5(CC)C=CCN6CC[C@]43[C@@H]65)C2)C1 [Vincristine sulfate]"
reported_result = 3


---

tested on: 60 cancer cell lines (NCI 60 cancer cell line series); test: NCI-DTP in vitro cancer screen, sulforhodamine B (SRB) growth inhibition, 48 hour exposure; assay type: cell-based, human; details: Ovarian OVCAR-8 CL6005
result type: sensitivity classification Low(1)/Medium(2)/High(3)

[[record]]
compound = "CC(=O)O[C@H]1C(=O)[C@@]2(C)[C@H]([C@H](OC(=O)c3ccccc3)[C@]3(O)C[C@H](OC(=O)[C@H](O)[C@@H](NC(=O)c4ccccc4)c4ccccc4)C(C)=C1C3(C)C)[C@]1(OC(C)=O)CO[C@@H]1C[C@@H]2O [TAXOL, paclitaxel, reference compound]"
reported_result = 2

[[record]]
compound = "CS(=O)(=O)OCCCCOS(C)(=O)=O"
reported_result = 1

[[record]]
compound = "N[C@@H](Cc1ccc(N(CCCl)CCCl)cc1)C(=O)O"
reported_result = 2

[[record]]
compound = "NC(=O)NO [Hydroxyurea]"
reported_result = 2

[[record]]
compound = "Sc1ncnc2nc[nH]c12"
reported_result = 2


---

Form field: classification of cell line as Low(1), Medium(2), High(3) sensitivity to compound (one value per entry).
Test system: 60 cancer cell lines (NCI 60 cancer cell line series)
Assay: NCI-DTP in vitro cancer screen, sulforhodamine B (SRB) growth inhibition, 48 hour exposure
Assay type: cell-based, human
Conditions: Breast BT-549 CL5013
Source text: Cancer Cell Line Preparation. Sixty cancer cell lines were obtained from the National Cancer Institute Developmental Therapeutics Program (NCI-DTP). […] No-drug, no-cell and no-growth controls are included. […] From dose response curves based on the SRB data, various parameters can be determined. […] More precisely, the quantity used in the calculation to be described is the potency measure −log{GI50}. […]
result type: classification of cell line as Low(1), Medium(2), High(3) sensitivity to compound

[[record]]
compound = "CS(=O)(=O)OCCCCOS(C)(=O)=O"
study_system = "60 cancer cell lines (NCI 60 cancer cell line series)"
reported_result = 1

[[record]]
compound = "NC(=O)NO [Hydroxyurea]"
study_system = "60 cancer cell lines (NCI 60 cancer cell line series)"
reported_result = 1

[[record]]
compound = "CN(Cc1cnc2nc(N)nc(N)c2n1)c1ccc(C(=O)N[C@@H](CCC(=O)O)C(=O)O)cc1 [Methotrexate]"
study_system = "60 cancer cell lines (NCI 60 cancer cell line series)"
reported_result = 1

